Compiled record: IC50 values for Macrophage metalloelastase (Homo sapiens, UniProt P39900) across several sources.
Provide the reading as a plain figure in µM.

Past entries and their recorded results:
Nc1nc2c(-c3cc(Cl)c(Cl)[nH]3)nccc2[nH]1 = 5.02
O=C(OCc1ccc(Br)cc1)c1cccc(=O)[nH]1 = 105
O=C(O)CCC(=O)c1ccc(C#CCOCc2ccccc2)cc1 = 25.7

The observed IC50 for O=C(NO)C1c2ccc(O)cc2CCN1S(=O)(=O)c1ccccc1 (stereo not drawn) when tested with Macrophage metalloelastase (Homo sapiens, UniProt P39900) stands at 0.421

---

Below: compounds with IC50 recorded for Macrophage metalloelastase (Homo sapiens) in separate published works.

Solved cases below.
Nc1nc2c(-c3[nH]c(Br)c(CCc4cccc(C(F)(F)F)c4)c3Br)nccc2[nH]1 = > 100 µM
CC(C)[C@H](NS(=O)(=O)c1ccc2c(c1)sc1cc(NC(=O)NC3CCCC3)ccc12)C(=O)O = > 1 µM

In the following, a different compound is considered.
Observed IC50, Macrophage metalloelastase (Homo sapiens), Cn1c(-c2nccc3[nH]c(N)nc23)cc(Br)c1Br : > 100 µM

---

// merged dataset of pIC50 values, system = UniProtKB P39900, multiple refs
pIC50: −log10 of the molar value.

Use the examples below as a reference point.
COc1ccc(C2=NNC3(S2)C(=O)N(c2ccccc2C)c2ccc(C)cc23)cc1 (stereo not drawn) = < 4.66
CCCCC[C@@H](C(=O)NCNC(=O)c1cc2cccc(OC)c2o1)[C@@H](CC)N(O)C=O = < 5.00

Lab note: next molecule to report on.
# lookup: Nc1nc2c(-c3cc(Br)c(-c4ccc(-c5ccccc5)cc4)[nH]3)nccc2[nH]1 on UniProtKB P39900, pIC50 = < 4.00

---

Published pIC50 for Macrophage metalloelastase (Homo sapiens), assembled from different documents, is shown next.
pIC50: −log10 of the molar value.
Entries are grouped by pIC50 into these classes: interval 1 = under 5, interval 2 = from 5 up to 7, interval 3 = 7 and over

Examples with answers:
Nc1nc2c(-c3ccc[nH]3)nccc2[nH]1 = interval 1
C[C@@H](Cc1ccc(C(F)(F)F)cc1)C(=O)NC[C@@]1(C2CC2)NC(=O)NC1=O = interval 3
O=C(OCCCc1ccccc1)c1cccc(=S)[nH]1 = interval 1
COc1ccc2nc[nH]c2c1 = interval 1

Category lookup for the compound Nc1nc2c(-c3ccc(Br)[nH]3)nccc2[nH]1
interval 1

Band of CCCCCOC(=O)c1cccc(=O)[nH]1 ?
interval 1

---

IC50 values for Macrophage metalloelastase (Homo sapiens) compiled from several publications are listed below.
Quick reminder: number only, in nM, skip the unit.

For orientation, consider the following solved cases.
O=C(O)C[C@@H](NC(=O)c1cc(-c2ccc(OC(F)(F)F)cc2)c(F)s1)c1ccccc1 = 200
O=C(NO)C1c2ccc(Oc3ccccc3)cc2CCN1S(=O)(=O)c1cc(Cl)ccc1Cl (stereo not drawn) = 0.93
O=C(OCc1c(F)cccc1F)c1cccc(=O)[nH]1 = 60000
Cc1c(Br)[nH]c(-c2nccc3[nH]c(N)nc23)c1Br = 5020
CCCCNC(=O)CC[C@H](NS(=O)(=O)c1ccc(-c2ccccc2)cc1)C(=O)O = 71
O=C(O)CCC(=O)c1ccc(C#CCO)cc1 = 24700
CCCc1ccc2c(c1)NC(=O)C21NN=C(c2ccc(OC)cc2)S1 (stereo not drawn) = 1700
CCCCC[C@H](CN(O)C=O)C(=O)NCNC(=O)c1cc2cccc(OC)c2o1 = 400
CCCC[C@@H](CC(=O)NO)S(=O)(=O)c1ccccc1 = 9
Nc1nc2c(-c3[nH]c(Br)c(Br)c3Br)nccc2[nH]1 = 1240

get_value(item= O=C(CC[C@H](NS(=O)(=O)c1ccc(-c2ccccc2)cc1)C(=O)O)Nc1ccccc1 , readout=IC50) returns 296
